Cited source for all entries: patent US20230150974A1

Below, each entry is listed with its recorded DC50.
Biological target: HiBit-BRG1 (Homo sapiens, UniProt P51532)
Construct: expressed in transfected cells
Sequence (P51532 whole entry): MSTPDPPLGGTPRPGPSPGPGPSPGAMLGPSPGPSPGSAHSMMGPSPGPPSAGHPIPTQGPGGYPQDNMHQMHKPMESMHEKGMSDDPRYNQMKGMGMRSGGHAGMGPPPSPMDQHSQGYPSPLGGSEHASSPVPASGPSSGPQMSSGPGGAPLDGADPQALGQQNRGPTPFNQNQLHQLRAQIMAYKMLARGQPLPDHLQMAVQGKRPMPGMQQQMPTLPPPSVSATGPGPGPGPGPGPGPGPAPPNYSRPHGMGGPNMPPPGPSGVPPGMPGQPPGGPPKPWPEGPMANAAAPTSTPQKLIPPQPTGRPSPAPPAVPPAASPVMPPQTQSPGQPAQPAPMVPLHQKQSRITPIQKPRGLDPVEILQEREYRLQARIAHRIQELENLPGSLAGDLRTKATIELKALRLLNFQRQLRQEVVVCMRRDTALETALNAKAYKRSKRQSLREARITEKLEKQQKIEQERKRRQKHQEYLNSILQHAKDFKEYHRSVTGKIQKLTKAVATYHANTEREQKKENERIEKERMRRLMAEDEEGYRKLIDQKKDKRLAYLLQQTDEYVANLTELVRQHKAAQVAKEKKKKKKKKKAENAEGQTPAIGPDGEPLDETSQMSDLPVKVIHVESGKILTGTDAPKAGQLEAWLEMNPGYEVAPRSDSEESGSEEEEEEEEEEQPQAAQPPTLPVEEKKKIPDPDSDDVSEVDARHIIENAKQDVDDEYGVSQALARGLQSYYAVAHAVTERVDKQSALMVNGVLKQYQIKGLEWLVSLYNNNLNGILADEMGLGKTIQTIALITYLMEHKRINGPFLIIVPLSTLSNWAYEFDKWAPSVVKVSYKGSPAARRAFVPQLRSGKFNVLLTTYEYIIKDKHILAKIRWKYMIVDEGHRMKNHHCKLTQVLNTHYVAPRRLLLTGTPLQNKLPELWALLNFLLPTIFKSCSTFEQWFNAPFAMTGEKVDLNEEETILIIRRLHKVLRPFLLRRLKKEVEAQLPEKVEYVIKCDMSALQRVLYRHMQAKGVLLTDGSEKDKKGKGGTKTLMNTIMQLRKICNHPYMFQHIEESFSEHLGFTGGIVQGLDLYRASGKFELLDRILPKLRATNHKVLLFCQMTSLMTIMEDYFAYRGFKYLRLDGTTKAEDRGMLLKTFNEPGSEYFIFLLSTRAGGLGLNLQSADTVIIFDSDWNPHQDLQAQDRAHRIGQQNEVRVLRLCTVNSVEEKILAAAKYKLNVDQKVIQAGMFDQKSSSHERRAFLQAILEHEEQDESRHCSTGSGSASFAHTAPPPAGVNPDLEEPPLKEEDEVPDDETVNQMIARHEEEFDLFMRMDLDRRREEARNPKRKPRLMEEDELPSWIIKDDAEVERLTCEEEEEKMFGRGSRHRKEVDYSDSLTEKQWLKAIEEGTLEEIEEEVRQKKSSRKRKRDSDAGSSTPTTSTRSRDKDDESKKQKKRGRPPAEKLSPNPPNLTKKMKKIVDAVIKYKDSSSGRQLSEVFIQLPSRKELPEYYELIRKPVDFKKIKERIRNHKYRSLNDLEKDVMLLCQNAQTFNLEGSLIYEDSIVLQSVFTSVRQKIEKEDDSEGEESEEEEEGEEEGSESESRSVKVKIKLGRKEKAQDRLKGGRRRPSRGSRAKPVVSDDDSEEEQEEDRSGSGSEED
Assay: HiBit-BRG1 cell-based degradation assay (Nano-Glo HiBiT Lytic Detection)
Conditions: HeLa cells expressing HiBit-BRG1 and LgBit, 24 h; read-out: BRG1 HiBit Degradation IC50
value.kind: DC50

{"columns": ["compound", "value.kind", "result"],
 "data": [
  ["Cc1ncsc1-c1ccc([C@H](C)NC(=O)[C@@H]2C[C@@H](O)CN2C(=O)[C@@H](NC(=O)CCCCCCCCCCN2C[C@@H]3CN(Cc4ccc(CCOc5cc(-c6ccccc6O)nnc5N)cc4)C[C@@H]3C2)C(C)(C)C)cc1", "DC50", "> 100 nM"],
  ["CN(CCNC(=O)COc1cccc2c1C(=O)N(C1CCC(=O)NC1=O)C2=O)CCNC(=O)CN1CCN(c2cc(-c3ccccc3O)nnc2N)CC1 (stereo not shown)", "DC50", "> 1000 nM"],
  ["Cc1ncsc1-c1ccc(CNC(=O)[C@@H]2C[C@@H](O)CN2C(=O)[C@@H](NC(=O)CCN2CCC(OC3CCN(C(=O)c4ccc(CCOc5cc(-c6ccccc6O)nnc5N)cc4)CC3)CC2)C(C)(C)C)cc1", "DC50", "> 1000 nM"],
  ["Nc1nnc(-c2ccccc2O)cc1OCCc1ccc(CNC(=O)CCCCOc2cccc3c2CN(C2CCC(=O)NC2=O)C3=O)cc1 (stereo not shown)", "DC50", "> 1000 nM"],
  ["Cc1ncsc1-c1ccc(CNC(=O)[C@@H]2C[C@@H](O)CN2C(=O)[C@@H](NC(=O)COCCOCCOCCOCCOCCNC(=O)c2ccc(CCOc3cc(-c4ccccc4O)nnc3N)cc2)C(C)(C)C)cc1", "DC50", "> 1000 nM"],
  ["Nc1nnc(-c2ccccc2O)cc1OCCc1ccc(CNC(=O)C2CC2CNC(=O)COc2cccc3c2C(=O)N(C2CCC(=O)NC2=O)C3=O)cc1 (stereo not shown)", "DC50", "> 1000 nM"],
  ["Cc1ncsc1-c1ccc([C@H](C)NC(=O)[C@@H]2C[C@@H](O)CN2C(=O)[C@@H](NC(=O)CCCCCCCCCCN2CCN(Cc3ccc(CCOc4cc(-c5ccccc5O)nnc4N)cc3)CC2)C(C)(C)C)cc1", "DC50", "> 1000 nM"],
  ["Cc1ncsc1-c1ccc([C@H](C)NC(=O)[C@@H]2C[C@@H](O)CN2C(=O)[C@@H](c2cc(OCCN3CCC(OC4CCN(C(=O)c5ccc(CCOc6cc(-c7ccccc7O)nnc6N)cc5)CC4)CC3)no2)C(C)C)cc1", "DC50", "> 100 nM"],
  ["Cc1ncsc1-c1ccc([C@H](C)NC(=O)[C@@H]2C[C@@H](O)CN2C(=O)[C@@H](c2cc(OCCN3CCC(CC(=O)NCc4ccc(CCOc5cc(-c6ccccc6O)nnc5N)cc4)CC3)no2)C(C)C)cc1", "DC50", "> 1000 nM"],
  ["Cc1ncsc1-c1ccc(CNC(=O)[C@@H]2C[C@@H](O)CN2C(=O)[C@@H](NC(=O)CCN2CC3(C2)CN(CC(=O)NCc2ccc(CCOc4cc(-c5ccccc5O)nnc4N)cc2)C3)C(C)(C)C)cc1", "DC50", "> 1000 nM"]
]}

###

Below, each entry is listed with its recorded DC50.
Target: HiBiT-BRM (Homo sapiens)
Construct: expressed in transfected cells
Sequence (P51531 whole entry): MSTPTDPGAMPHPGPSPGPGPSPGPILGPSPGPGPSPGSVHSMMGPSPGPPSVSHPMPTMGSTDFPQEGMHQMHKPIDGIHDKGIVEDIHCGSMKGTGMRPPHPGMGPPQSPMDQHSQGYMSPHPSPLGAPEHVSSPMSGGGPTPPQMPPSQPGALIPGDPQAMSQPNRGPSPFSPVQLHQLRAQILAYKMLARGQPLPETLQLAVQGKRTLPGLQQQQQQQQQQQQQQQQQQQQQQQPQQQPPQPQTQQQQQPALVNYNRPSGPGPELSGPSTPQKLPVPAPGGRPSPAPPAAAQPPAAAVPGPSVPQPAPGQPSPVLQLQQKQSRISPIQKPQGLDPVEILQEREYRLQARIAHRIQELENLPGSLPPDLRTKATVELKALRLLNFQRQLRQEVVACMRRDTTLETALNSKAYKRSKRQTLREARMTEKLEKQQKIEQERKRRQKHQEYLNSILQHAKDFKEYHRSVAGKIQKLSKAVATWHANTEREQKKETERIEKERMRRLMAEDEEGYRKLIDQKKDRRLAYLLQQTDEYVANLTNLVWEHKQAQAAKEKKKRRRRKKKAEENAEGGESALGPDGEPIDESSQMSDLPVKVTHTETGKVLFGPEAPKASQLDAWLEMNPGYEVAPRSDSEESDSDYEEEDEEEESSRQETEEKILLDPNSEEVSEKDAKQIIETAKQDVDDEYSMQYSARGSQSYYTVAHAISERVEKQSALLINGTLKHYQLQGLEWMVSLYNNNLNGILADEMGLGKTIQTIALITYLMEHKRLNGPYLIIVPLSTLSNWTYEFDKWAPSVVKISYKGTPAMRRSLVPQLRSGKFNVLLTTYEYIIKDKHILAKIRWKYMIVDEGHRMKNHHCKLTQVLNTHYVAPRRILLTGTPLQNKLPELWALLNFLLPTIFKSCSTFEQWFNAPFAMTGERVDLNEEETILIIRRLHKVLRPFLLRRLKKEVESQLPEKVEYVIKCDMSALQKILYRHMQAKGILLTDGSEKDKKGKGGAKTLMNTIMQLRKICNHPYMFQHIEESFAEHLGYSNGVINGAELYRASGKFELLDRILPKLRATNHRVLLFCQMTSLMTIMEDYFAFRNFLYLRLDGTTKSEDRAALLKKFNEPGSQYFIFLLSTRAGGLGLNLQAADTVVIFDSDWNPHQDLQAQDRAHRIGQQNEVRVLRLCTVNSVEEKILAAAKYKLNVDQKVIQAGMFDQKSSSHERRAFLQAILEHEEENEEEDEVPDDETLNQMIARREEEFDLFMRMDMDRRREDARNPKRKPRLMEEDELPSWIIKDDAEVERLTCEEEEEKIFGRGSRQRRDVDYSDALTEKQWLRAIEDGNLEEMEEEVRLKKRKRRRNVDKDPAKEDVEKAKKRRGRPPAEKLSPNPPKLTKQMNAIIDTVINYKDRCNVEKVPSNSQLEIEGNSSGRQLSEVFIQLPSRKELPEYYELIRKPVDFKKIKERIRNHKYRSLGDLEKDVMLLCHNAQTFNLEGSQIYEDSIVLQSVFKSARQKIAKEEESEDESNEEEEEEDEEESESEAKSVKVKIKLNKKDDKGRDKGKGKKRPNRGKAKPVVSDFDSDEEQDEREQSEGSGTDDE
Experiment: HiBiT-BRM cell-based degradation assay (Nano-Glo HiBiT Lytic Detection)
Settings: HeLa cells expressing HiBiT-BRM, 24 h; read-out: BRM HiBit Degradation IC50
value.kind: DC50

{"columns": ["compound", "result"],
 "data": [
  ["Cc1ncsc1-c1ccc(CNC(=O)[C@@H]2C[C@@H](O)CN2C(=O)[C@@H](NC(=O)COCC(=O)NCc2ccc(CCOc3cc(-c4ccccc4O)nnc3N)cc2)C(C)(C)C)cc1 [Compound 165]", "> 1000 nM"],
  ["Nc1nnc(-c2ccccc2O)cc1OCCc1ccc(CNCCN2CCN(c3cccc4c3C(=O)N(C3CCC(=O)NC3=O)C4=O)CC2=O)cc1 (centres unmarked) [Compound 153]", "> 1000 nM"],
  ["Cc1ncsc1-c1ccc(CNC(=O)[C@@H]2C[C@@H](O)CN2C(=O)[C@@H](NC(=O)CCN2CCC(OC3CCN(C(=O)c4ccc(CCOc5cc(-c6ccccc6O)nnc5N)cc4)CC3)CC2)C(C)(C)C)cc1 [Compound 202]", "> 1000 nM"],
  ["CN(CCc1ccc(CNCCN2CCN(c3cccc4c3C(=O)N(C3CCC(=O)NC3=O)C4=O)CC2)cc1)c1cc(-c2ccccc2O)nnc1N (centres unmarked) [Compound 160, diformate]", "> 1000 nM"],
  ["Cc1ncsc1-c1ccc(CNC(=O)[C@@H]2C[C@@H](O)CN2C(=O)[C@@H](NC(=O)COCCNC(=O)c2ccc(CCOc3cc(-c4ccccc4O)nnc3N)cc2)C(C)(C)C)cc1 [Compound 163]", "> 1000 nM"],
  ["Nc1nnc(-c2ccccc2O)cc1N1CCN(CC(=O)NCCCCNc2ccc3c(c2)C(=O)N(C2CCC(=O)NC2=O)C3=O)CC1 (centres unmarked) [Compound 103]", "> 1000 nM"],
  ["Cc1ncsc1-c1ccc([C@H](C)NC(=O)[C@@H]2C[C@@H](O)CN2C(=O)[C@@H](c2cc(OCCN3CCN(c4cc(-c5ccccc5O)nnc4N)CC3)no2)C(C)C)cc1 [Compound 217]", "> 10 nM"],
  ["Nc1nnc(-c2ccccc2O)cc1OCCc1ccc(CNCCCCNc2cccc3c2C(=O)N(C2CCC(=O)NC2=O)C3=O)cc1 (centres unmarked) [Compound 107]", "> 1000 nM"],
  ["Nc1nnc(-c2ccccc2O)cc1NCCc1ccc(CNC(=O)CCCCOc2cccc3c2C(=O)N(C2CCC(=O)NC2=O)C3=O)cc1 (centres unmarked) [Compound 147]", "> 1000 nM"],
  ["Cc1ncsc1-c1ccc(CNC(=O)[C@H]2C[C@H](O)CN2C(=O)[C@H](NC(=O)CCCCCNC(=O)c2ccc(CCOc3cc(-c4ccccc4O)nnc3N)cc2)C(C)(C)C)cc1 (stereo in doubt) [Compound 53]", "> 1000 nM"],
  ["Cc1ncsc1-c1ccc([C@H](C)NC(=O)[C@@H]2C[C@@H](O)CN2C(=O)[C@@H](c2cc(OCCNCc3ccc(CCOc4cc(-c5ccccc5O)nnc4N)cc3)no2)C(C)C)cc1 [Compound 205]", "< 10 nM"]
]}
